test system: PC-12 neural cell line; test: Toxicity test in PC-12 nerve cell (MTT); assay type: cell-based; settings: PC-12 cells, 50 μM compound for 24 h
Hi there, I'd appreciate the recorded SR(%) cell survival rate, 50 μM for every entry that follows.

Query block: What is its SR(%) cell survival rate, 50 μM for PC-12 neural cell line? Entry: CCN(CC)Cc1ccccc1CNC(=O)c1cccc(NC(=O)c2ccco2)c1 [Compound 6]
Result block: 81.46%

Query block: What is its SR(%) cell survival rate, 50 μM for PC-12 neural cell line? Entry: CCN(CC)Cc1ccccc1CNC(=O)c1cccc(NC(=O)c2ccc(C(F)(F)F)cc2)c1 [Compound 25]
Result block: 91.57%

Query block: What is its SR(%) cell survival rate, 50 μM for PC-12 neural cell line? Entry: CCN(CC)Cc1ccccc1CNC(=O)c1cccc(NC(=O)c2ccc(C)cc2)c1 [Compound 22]
Result block: 89.42%

Query block: What is its SR(%) cell survival rate, 50 μM for PC-12 neural cell line? Entry: CCN(CC)Cc1ccccc1CNC(=O)c1cccc(NC(=O)c2cccc(F)c2)c1 [Compound 17]
Result block: 89.75%
